These measurements were taken from ChEMBL document CHEMBL1667832.

Biological target: Cytochrome P450 3A4 (Homo sapiens, UniProt P08684)
Sequence (P08684 whole entry): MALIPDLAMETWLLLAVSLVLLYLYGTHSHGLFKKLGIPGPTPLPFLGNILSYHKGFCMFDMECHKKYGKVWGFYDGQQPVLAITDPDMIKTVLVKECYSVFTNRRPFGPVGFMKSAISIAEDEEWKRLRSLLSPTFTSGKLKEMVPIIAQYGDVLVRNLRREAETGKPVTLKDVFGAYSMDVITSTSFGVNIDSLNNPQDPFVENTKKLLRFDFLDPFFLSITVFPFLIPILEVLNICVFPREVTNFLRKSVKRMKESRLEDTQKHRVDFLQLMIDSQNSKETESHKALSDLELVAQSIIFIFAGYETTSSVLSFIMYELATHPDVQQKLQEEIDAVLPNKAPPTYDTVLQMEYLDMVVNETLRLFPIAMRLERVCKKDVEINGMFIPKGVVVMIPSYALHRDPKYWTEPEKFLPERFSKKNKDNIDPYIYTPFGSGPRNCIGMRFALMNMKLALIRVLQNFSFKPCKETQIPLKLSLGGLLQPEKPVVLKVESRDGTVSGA
Experiment: Inhibition of CYP3A4
Assay type: ADME
pIC50: −log10 of the molar value.
property_name: pIC50

[Q] Dear colleague, I am looking for the recorded pIC50 of the following molecule: Nc1nccn2c1c(-c1ccc3ccc(-c4ccccc4)nc3c1F)nc2[C@H]1CC[C@H](C(=O)Nc2nc3ccccc3[nH]2)CC1
[A] < 4.70

====

Experiment: Cmax in mouse at 25 mg/kg, po
Type: ADME, organism-based
Parameters: dose 25 mg/kg, route oral
Settings: in vivo
We begin with a simple list: items and their reported Cmax.
I only need the number, in µM, no unit after it.

{"columns": ["given_smiles", "measurement_unit", "Cmax"],
 "data": [
  ["Nc1nccn2c1c(-c1ccc3ccc(-c4ccccc4)nc3c1F)nc2[C@H]1CC[C@H](C(N)=O)CC1", "µM", 1.9],
  ["Nc1nccn2c1c(-c1ccc3ccc(-c4ccccc4)nc3c1F)nc2[C@H]1CC[C@H](C(=O)Nc2nc3ccccc3[nH]2)CC1", "µM", 28],
  ["Nc1nccn2c1c(-c1ccc3ccc(-c4ccccc4)nc3c1F)nc2[C@H]1CC[C@H](C(=O)Nc2nncs2)CC1", "µM", 0.13]
]}

Turning now to a further compound:
[Q] Dear colleague, I am looking for the recorded Cmax of the following compound: Nc1nccn2c1c(-c1ccc3ccc(-c4ccccc4)nc3c1F)nc2[C@H]1CC[C@H](C(=O)O)CC1
[A] 5.5

====

Assay: Clearance in mouse at 5 mg/kg, iv
Type: ADME, organism-based
Parameters: dose 5 mg/kg, route intravenous
Conditions: in vivo
property_name: clearance (mL/min/kg)
I only need the number, in mL/min/kg, no unit after it.

Here are 3 compounds together with their reported answers.
{"columns": ["given_smiles", "property_name", "measurement_unit", "value_observed"],
 "data": [
  ["Nc1nccn2c1c(-c1ccc3ccc(-c4ccccc4)nc3c1F)nc2[C@H]1CC[C@H](C(=O)O)CC1", "clearance", "mL/min/kg", 26],
  ["Nc1nccn2c1c(-c1ccc3ccc(-c4ccccc4)nc3c1F)nc2[C@H]1CC[C@H](C(=O)Nc2nncs2)CC1", "clearance", "mL/min/kg", 73],
  ["Nc1nccn2c1c(-c1ccc3ccc(-c4ccccc4)nc3c1F)nc2[C@H]1CC[C@H](C(=O)Nc2nc3ccccc3[nH]2)CC1", "clearance", "mL/min/kg", 1]
]}

[Q] Dear colleague, I am looking for the recorded clearance of the following compound: Nc1nccn2c1c(-c1ccc3ccc(-c4ccccc4)nc3c1F)nc2[C@H]1CC[C@H](C(N)=O)CC1
[A] 38

====

Experiment: Cmax in mouse at 5 mg/kg, po
Type: ADME, organism-based
Design: dose 5 mg/kg, route oral
Settings: in vivo
property_name: Cmax (nM)
I only need the number, in nM, no unit after it.

[Q] Dear colleague, I am looking for the recorded Cmax of the following molecule: Nc1nccn2c1c(-c1ccc3ccc(-c4ccccc4)nc3c1F)nc2[C@H]1CC[C@H](CO)CC1
[A] 110

====

Assay: Volume of distribution at steady state in mouse at 5 mg/kg, iv
Assay type: ADME, organism-based
Design: dose 5 mg/kg, route intravenous
Conditions: in vivo, read-out: Vdss
property_name: Vd (L/kg)
I only need the number, in L/kg, no unit after it.

Here are 3 molecules together with their reported answers.
{"columns": ["given_smiles", "value_observed"],
 "data": [
  ["Nc1nccn2c1c(-c1ccc3ccc(-c4ccccc4)nc3c1F)nc2[C@H]1CC[C@H](C(N)=O)CC1", 2.6],
  ["Nc1nccn2c1c(-c1ccc3ccc(-c4ccccc4)nc3c1F)nc2[C@H]1CC[C@H](C(=O)Nc2nncs2)CC1", 3.2],
  ["Nc1nccn2c1c(-c1ccc3ccc(-c4ccccc4)nc3c1F)nc2[C@H]1CC[C@H](C(=O)Nc2nc3ccccc3[nH]2)CC1", 0.43]
]}

[Q] Dear colleague, I am looking for the recorded Vd of the following molecule: Nc1nccn2c1c(-c1ccc3ccc(-c4ccccc4)nc3c1F)nc2[C@H]1CC[C@H](C(=O)O)CC1
[A] 2.8
